- Target Of Assay: T1, GPR39 (G protein coupled receptor 39) (UniProt O43194 1-453, limits assumed)
- T1 sequence (looked up): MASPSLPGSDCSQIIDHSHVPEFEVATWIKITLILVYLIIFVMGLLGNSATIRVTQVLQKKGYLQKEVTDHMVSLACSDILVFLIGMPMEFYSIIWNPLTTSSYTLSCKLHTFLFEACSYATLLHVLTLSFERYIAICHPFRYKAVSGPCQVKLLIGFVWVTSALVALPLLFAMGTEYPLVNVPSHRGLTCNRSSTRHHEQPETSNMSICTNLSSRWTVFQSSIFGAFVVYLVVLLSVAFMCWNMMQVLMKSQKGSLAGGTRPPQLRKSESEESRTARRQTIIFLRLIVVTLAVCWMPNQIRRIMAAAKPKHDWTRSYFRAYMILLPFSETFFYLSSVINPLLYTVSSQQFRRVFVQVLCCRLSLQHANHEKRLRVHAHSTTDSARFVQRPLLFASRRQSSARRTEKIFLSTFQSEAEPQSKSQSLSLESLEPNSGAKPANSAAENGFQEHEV
- Assay Notes: cell-based or functional assay
Square brackets hold non-standard residues; d marks the D form. Ends that are not written are not given here. * marks the point of attachment. 1,2‑diphenyl = 1,2-diphenyl substituents on the histidine imidazole (1,2-diphenyl-1H-imidazol-4-yl); dPhe(4-Me) = Cc1ccc(C[C@@H](N)C(=O)O)cc1; Mtt = Cc1ccc(C(c2ccccc2)(c2ccccc2)*)cc1; Trt = c1ccc(C(c2ccccc2)(c2ccccc2)*)cc1; Octanoyl = CCCCCCCC(=O)*
Consider the following binders and their measured EC50; SRE-luciferase reporter readings.

[
  {
    "Binder": "H(Trt)K(Octanoyl)YY-OH [HKFY-48]",
    "Unit Symbol": "nM",
    "EC50; SRE-luciferase reporter": 330
  },
  {
    "Binder": "H(1,2‑diphenyl)K(Octanoyl)[dPhe(4-Me)]Y-OH [HKFY-59]",
    "Unit Symbol": "nM",
    "EC50; SRE-luciferase reporter": 550
  },
  {
    "Binder": "H(Trt)K(Octanoyl)FY [HKFY-1]",
    "Unit Symbol": "nM",
    "EC50; SRE-luciferase reporter": 150
  },
  {
    "Binder": "H(Mtt)K(Octanoyl)FY [HKFY-5]",
    "Unit Symbol": "nM",
    "EC50; SRE-luciferase reporter": 1840
  }
]
